Entry source: PubChem BioAssay AID602440

- assayTarget: Sentrin-specific protease 8 (Homo sapiens) (UniProt Q96LD8)
- Sequence (Q96LD8 whole entry, looked up): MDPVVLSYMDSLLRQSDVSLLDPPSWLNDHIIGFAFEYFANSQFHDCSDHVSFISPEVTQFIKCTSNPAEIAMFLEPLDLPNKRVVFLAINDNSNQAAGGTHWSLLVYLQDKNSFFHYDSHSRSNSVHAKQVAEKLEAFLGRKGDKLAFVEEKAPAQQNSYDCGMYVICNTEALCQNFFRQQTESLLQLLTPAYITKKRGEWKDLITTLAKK
- assayProcedure: blockers of SENP8 deneddylase activity – biochemical, fluorescence, Nedd8 protein substrate, uHTS, primary screen (AID 602440)
- conditionNotes: recombinant SENP8, Nedd8 substrate fluorescence; at 20 µM; hits give high values
About 2,300 (0.64%) of roughly 360,000 compounds were called active. The sample as a whole holds a higher share of actives than the screen did.
I'd be grateful if you could share measured inhibition for these entries.
Report as a plain number; the unit % is understood.

inhibition measured on CN(C(=O)c1cccc(NC(=O)Cc2ccc([N+](=O)[O-])cc2)c1)C1CCC1 = 19.5

Recorded inhibition (molecule CCOc1ccc(C(CC(=O)O)NC(=O)C23CC4CC(CC(C4)C2)C3)cc1OC (stereo unspecified) ): 9

The recorded inhibition for CS(=O)(=O)N(CC(=O)N1CCc2ccccc2C1)c1ccc(Br)cc1 is 6.5

// sample O=C(NCCN1CCOCC1)C1CCN(S(=O)(=O)c2ccccc2)CC1 , its inhibition was 18

Reported inhibition ( Nc1ccc2[nH]c(=S)sc2c1 ) = -81.4

molecule C#CCOc1ccccc1/C=C1/C(=O)ON=C1C , inhibition observed: 13.5

For Cn1cccc1C(=O)N1CCc2ccccc2C1 the molecule record lists inhibition as -0.8

// sample CN(Cc1ccccc1)C(=O)CCNC(=O)Cn1cnc2ccccc2c1=O , its inhibition was 16.4

So for CC1=NOC(=O)/C1=C\c1ccccc1 , the logged inhibition turned out to be 42.9

Short answer for COc1ccc(OC)c(NC(=O)c2cccc(S(=O)(=O)N3CCN(C(C)=O)CC3)c2)c1 : inhibition was 13.3

The reported inhibition of the molecule CC(=O)N1CCN(S(=O)(=O)c2cccc(C(=O)NC3CCC(C)CC3)c2)CC1 (stereo unspecified) was 43.9
